# measured-target: T1, cyno FcRn/b2M (cyno, UniProt Q8SPV9 24-297; Q8SPW0 21-119, biotinylated)
# T1 construct: bought recombinant biotinylated protein (Immunitrack ITF05 or ACRO FCM-C82W5); also called cFcRn; cFcRn/cb2M
# T1 sequence (Q8SPV9 24-297 limits assumed, chain 1 of 2): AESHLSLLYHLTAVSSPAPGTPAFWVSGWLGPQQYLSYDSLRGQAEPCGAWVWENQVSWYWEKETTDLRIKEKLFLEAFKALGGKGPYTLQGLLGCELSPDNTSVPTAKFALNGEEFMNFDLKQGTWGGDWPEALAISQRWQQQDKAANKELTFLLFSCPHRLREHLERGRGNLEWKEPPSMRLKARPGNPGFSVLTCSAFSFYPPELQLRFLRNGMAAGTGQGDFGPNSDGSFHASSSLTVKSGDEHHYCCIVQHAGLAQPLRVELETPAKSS
# T1 sequence (Q8SPW0 21-119 limits assumed, chain 2 of 2): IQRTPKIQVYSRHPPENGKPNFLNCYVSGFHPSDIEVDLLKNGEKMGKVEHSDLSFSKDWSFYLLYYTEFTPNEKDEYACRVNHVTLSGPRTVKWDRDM
# test-description: SPR pH 7.4;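 further: surface plasmon resonance kinetics, periplasmic extracts diluted 1:10 flowed over immobilized target at 25 °C, 120 s association then 600–3600 s dissociation, buffer with 150 mM NaCl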
# koff per entry

{"binder": "T0263018B11 T57R (VHH, name in Kabat numbering, FLAG3-His6 tagged) VHH: EVQLVESGGGVVQPGGSLRLSCAASGFTFSSYAMYWVRQAPGKGLEWVSAISSGGGSRDYADSVKGRFTISRDNSKNTLYLQMNSLRPEDTALYYCAADTLYTSLTWYSYWGQGTLVTVSS", "koff [s⁻¹]": 0.026}
{"binder": "T0263018B11 T57D (VHH, name in Kabat numbering, FLAG3-His6 tagged) VHH: EVQLVESGGGVVQPGGSLRLSCAASGFTFSSYAMYWVRQAPGKGLEWVSAISSGGGSDDYADSVKGRFTISRDNSKNTLYLQMNSLRPEDTALYYCAADTLYTSLTWYSYWGQGTLVTVSS", "koff [s⁻¹]": 0.026}
{"binder": "T0263018B11 S101A (VHH, name in Kabat numbering, FLAG3-His6 tagged) VHH: EVQLVESGGGVVQPGGSLRLSCAASGFTFSSYAMYWVRQAPGKGLEWVSAISSGGGSTDYADSVKGRFTISRDNSKNTLYLQMNSLRPEDTALYYCAADTLYTSLTWYAYWGQGTLVTVSS", "koff [s⁻¹]": 0.058}
{"binder": "T0263018B11 S100A (VHH, name in Kabat numbering, FLAG3-His6 tagged) VHH: EVQLVESGGGVVQPGGSLRLSCAASGFTFSSYAMYWVRQAPGKGLEWVSAISSGGGSTDYADSVKGRFTISRDNSKNTLYLQMNSLRPEDTALYYCAADTLYTALTWYSYWGQGTLVTVSS", "koff [s⁻¹]": 0.0099}
{"binder": "T0263018B11 S52aT (VHH, name in Kabat numbering, FLAG3-His6 tagged) VHH: EVQLVESGGGVVQPGGSLRLSCAASGFTFSSYAMYWVRQAPGKGLEWVSAISTGGGSTDYADSVKGRFTISRDNSKNTLYLQMNSLRPEDTALYYCAADTLYTSLTWYSYWGQGTLVTVSS", "koff [s⁻¹]": 0.059}
{"binder": "T0263018B11 D58H (VHH, name in Kabat numbering, FLAG3-His6 tagged) VHH: EVQLVESGGGVVQPGGSLRLSCAASGFTFSSYAMYWVRQAPGKGLEWVSAISSGGGSTHYADSVKGRFTISRDNSKNTLYLQMNSLRPEDTALYYCAADTLYTSLTWYSYWGQGTLVTVSS", "koff [s⁻¹]": 0.022}
{"binder": "T0263018B11 D58Y (VHH, name in Kabat numbering, FLAG3-His6 tagged) VHH: EVQLVESGGGVVQPGGSLRLSCAASGFTFSSYAMYWVRQAPGKGLEWVSAISSGGGSTYYADSVKGRFTISRDNSKNTLYLQMNSLRPEDTALYYCAADTLYTSLTWYSYWGQGTLVTVSS", "koff [s⁻¹]": 0.025}
{"binder": "T0263018B11 Y32L (VHH, name in Kabat numbering, FLAG3-His6 tagged) VHH: EVQLVESGGGVVQPGGSLRLSCAASGFTFSSLAMYWVRQAPGKGLEWVSAISSGGGSTDYADSVKGRFTISRDNSKNTLYLQMNSLRPEDTALYYCAADTLYTSLTWYSYWGQGTLVTVSS", "koff [s⁻¹]": 0.39}

Reference for the values: patent US20240132624A1
